experimentalSystem: Leukotriene B4 receptor (Cavia porcellus)
test: Inhibition of [3H]LTB4 binding to Leukotriene B4 receptor in the guinea pig spleen membranes.
parameterMeasured: IC50 (µM)

a. N#CCCCCCOc1cc(-c2ccccc2)cc(-c2ccccc2)n1
b. COc1ccc(-c2cc(-c3ccccc3)cc(OCCCCCC(=O)O)n2)cc1
[ask] Of a and b , whose reported IC50 is the larger number? Pick one; state its label.
[reply] b
(b: 1 µM, a: 0.7 µM)

1. Cc1ccc(-c2cc(-c3ccccc3)cc(OCCCCCC(=O)O)n2)cc1
2. NC(=O)CCCCCOc1cc(-c2ccccc2)cc(-c2ccccc2)n1
[ask] Of 1 and 2 , whose reported IC50 is the larger number? Pick one; state its label.
[reply] 1
(1: 0.3 µM, 2: 0.16 µM)
